Origin of the recorded values: PubChem BioAssay (NCATS)

Assay: Quantitative highthroughput screen to assess conditional lethalithy of NOMO1 cells grown in RPMI1640 with dialyzed fetal bovine serum (RPMI+ds) (AID 1963877); note: nearly all actives have a fitted effect of over 30% in size
Conditions: NOMO1 in RPMI+dialyzed FBS viability, ATP luminescence, 48 h; series mostly up to 45.8 µM
Inconclusive results are not listed. Activity calls are given as the source filed them. Calls come from the whole dose curve; as a rule, active = well fitted cell-killing curve with a large enough effect; inconclusive = small, poorly fitted or top-dose-only effect; inactive = flat fitted curve, though single readings scatter.
Labels: active, inactive

mol: Cc1ccc(/C=N/NC(=O)c2ccccc2Oc2ccccc2)o1
class: inactive
//
mol: CCOc1cc(C=C2C(=O)N(c3ccccc3)N=C2C)cc(Cl)c1OCC(=O)OC
class: inactive
//
mol: C=CC(=O)Nc1cc2c(Nc3ccc(F)c(Cl)c3)ncnc2cc1OCCCN1CCOCC1
class: active
//
mol: NS(=O)(=O)c1cc(C(=O)O)c(NCc2ccco2)cc1Cl
class: inactive
//
mol: C[C@H](c1ccc(F)cc1CCCC(=O)O)N(c1cc(F)ccc1F)S(=O)(=O)c1ccc(Cl)cc1
class: inactive
//
mol: NC(=O)NO
class: active
//
mol: Cc1ccc2c(=O)c3cccc(CC(=O)O)c3oc2c1C
class: inactive
//
mol: Cn1c(=O)c(-c2c(Cl)cccc2Cl)cc2cnc(Nc3cccc(C(=O)O)c3)nc21
class: inactive
//
mol: O=C(Nc1c(Cl)cncc1Cl)c1ccc(OC(F)F)c(OCC2CC2)c1
class: inactive
//
mol: COCCn1c2c([n+](Cc3cnccn3)c1C)C(=O)c1ccccc1C2=O
class: active
//
mol: NC(=O)Nc1cc(-c2cccc(F)c2)sc1C(=O)N[C@H]1CCCNC1
class: active
